The measurements presented in this section are drawn from patent US11040035B2.

Target: UniProt P35869
Assay: In vitro assay 1: antagonism in human cell line (transactivation assay, kynurenic acid prestimulated)
Conditions: Assay 1: AHR-luc Hum Antagonism IC50 [M], 150 μM kynurenic acid, 20 hours, firefly luciferase

compound	valueUnit	IC50
O=C(NCC1(O)CCCCC1)c1cc(-c2ccc(Cl)cc2)nn(-c2cccc(F)c2)c1=O	M	4.52e-07
CC(O)CNC(=O)c1cc(-c2ccc(Cl)cc2)nn(-c2cccc(F)c2)c1=O (stereo not shown)	M	1.88e-07
Cc1cccc(-n2nc(-c3ccc(Cl)cc3)cc(C(=O)NCC(O)C(F)(F)F)c2=O)c1 (single isomer, unassigned) [Example 367]	M	5e-07
O=C(N[C@H](CO)Cc1ccccc1)c1cc(-c2ccc(Cl)cc2)nn(-c2cccc(F)c2)c1=O	M	1.03e-07

---

Molecular target: AHR (Homo sapiens, UniProt P35869)
Sequence (P35869 11-848): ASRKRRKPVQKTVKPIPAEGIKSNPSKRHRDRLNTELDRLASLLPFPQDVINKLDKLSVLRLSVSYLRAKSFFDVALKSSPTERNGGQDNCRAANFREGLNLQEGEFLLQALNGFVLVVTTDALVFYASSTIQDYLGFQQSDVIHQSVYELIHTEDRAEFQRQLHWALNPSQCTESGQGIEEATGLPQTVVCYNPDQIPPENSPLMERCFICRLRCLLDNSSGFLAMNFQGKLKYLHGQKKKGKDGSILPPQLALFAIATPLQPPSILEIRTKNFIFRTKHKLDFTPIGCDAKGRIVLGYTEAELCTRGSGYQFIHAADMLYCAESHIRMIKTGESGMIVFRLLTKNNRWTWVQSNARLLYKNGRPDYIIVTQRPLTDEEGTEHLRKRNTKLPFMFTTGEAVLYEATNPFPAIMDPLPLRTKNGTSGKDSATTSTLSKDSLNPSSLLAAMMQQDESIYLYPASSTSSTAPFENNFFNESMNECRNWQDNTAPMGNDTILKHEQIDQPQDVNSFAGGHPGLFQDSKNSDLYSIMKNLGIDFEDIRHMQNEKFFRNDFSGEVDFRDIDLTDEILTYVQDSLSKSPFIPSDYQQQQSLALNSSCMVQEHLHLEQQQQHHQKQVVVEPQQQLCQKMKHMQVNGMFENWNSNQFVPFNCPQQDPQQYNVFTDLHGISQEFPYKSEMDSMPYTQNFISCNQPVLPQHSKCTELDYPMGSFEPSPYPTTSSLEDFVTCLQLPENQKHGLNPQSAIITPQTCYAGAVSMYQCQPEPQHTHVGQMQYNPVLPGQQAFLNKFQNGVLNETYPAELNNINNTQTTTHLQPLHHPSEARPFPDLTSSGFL
Assay: In vitro assay 1: antagonism in human cell line (transactivation assay, kynurenic acid prestimulated)
Details: Assay 1: AHR-luc Hum Antagonism IC50 [M], 150 μM kynurenic acid, 20 hours, firefly luciferase

compound	IC50, M
O=C(NCC1(O)CCC1)c1cc(-c2ccc(Cl)cc2)nn(-c2cccc(F)c2)c1=O [Example 212]	3.59e-08
O=C(NC(CO)C1CC1)c1cc(-c2ccc(Cl)cc2)nn(-c2cccc(F)c2)c1=O (single isomer, unassigned; (+)) [Example 195]	2.5e-07
CC(C)[C@@H](CO)NC(=O)c1cc(-c2ccc(N(C)C)c(Cl)c2)nn(-c2cccc(F)c2)c1=O [Example 375]	3.05e-08
O=C(N[C@H]1CC[C@@H]1O)c1cc(-c2ccc(Cl)cc2)nn(-c2cccc(F)c2)c1=O (single isomer, unassigned) [Example 336]	4.02e-08
C[C@@H](CO)NC(=O)c1cc(-c2ccc(N(C)C)c(Cl)c2)nn(-c2cccc(F)c2)c1=O [Example 377]	1.36e-07

---

Listing: IC50 of selected compounds
Biological target: AHR (Homo sapiens)
Test: In vitro assay 1: antagonism in human cell line (transactivation assay, kynurenic acid prestimulated)
Conditions: Assay 1: AHR-luc Hum Antagonism IC50 [M], 150 μM kynurenic acid, 20 hours, firefly luciferase

compound	valueModifier	IC50 (M)
Cc1ccc(-c2cc(C(=O)NCC(O)C(F)(F)F)c(=O)n(-c3cc(F)cc(F)c3)n2)cc1 (single isomer, unassigned) [Example 53]	=	8.85e-09
CC(C)C(O)CNC(=O)c1cc(-c2ccc(Cl)cc2)nn(-c2cccc(F)c2)c1=O (single isomer, unassigned) [Example 30]	=	1.33e-07
O=C(NCC(O)C(F)(F)F)c1cc(-c2ccc(C(F)(F)F)cc2)nn(-c2cccc(F)c2)c1=O (racemic) [Example 242]	>	2e-05
